# condition_summary: Crystal
The following compounds are listed with their measured Normal melting temperature values.
Just the number in °C, nothing appended.

C=C1CC[C@H]2C[C@@H]1C2(C)C [(1S,5S)-6,6-dimethyl-2-methylenebicyclo[3.1.1]heptane]    -61.5
C=C1C2CCC(C2)C1(C)C (centres undefined) [2,2-dimethyl-3-methylenebicyclo[2.2.1]heptane]    51.1
Cc1ccc(C(C)C)cc1 [1-(1-methylethyl)-4-methylbenzene]    -68.5

The compound identified as CC12CCC(CC1)C(C)(C)O2 [1,3,3-trimethyl-2-oxabicyclo[2.2.2]octane] registered its Normal melting temperature at 1.2
